assay: yeast display, Sf9 membrane polyspecificity reagent, FACS + sequencing; frameworks hold sequencing errors
measurementLabel: polyreactivity (PSR sort gate)

INSERT INTO results (macromoleculesequence, measurement) VALUES
  ('QVQLEESGGGLVQAGGSLRLTGAASGSTVVSYAMGWYRQERGKEWELVAAISSSSGRTRYADSVKGSFTISRDNAKNTVYLQMNSLKPEDTAVYYCAARRQSTRPGFYYWGQGTQVTVSS', 'high polyreactivity'),
  ('QVQLVESGGGLVQAGGSHRLSCAASGRTFYFYTMGWYRPAPGKESELVATIRWSAGSTYYADSVKGRFTISRDNAKNTVYLQMNSLKPEDTAVYYCNADPYVYSSWEYGYWGLGTQVTVSS', 'high polyreactivity'),
  ('QVQLVESGGGLVQAGGSLRLSCAASGSIFGFNAMGWYRQAPGKERELVAAINNGGSTNYADSVKGRFTISRDNAKNTVYLQMNSLKPEDTAVYYCAVGTLTYEGFRTYYYWGQGTQVTVSS', 'high polyreactivity');
